Taken from patent US20170198006A1.

biological target: PRMT5/MEP50 (Homo sapiens, UniProt O14744); construct: Flag-PRMT5; made in house; host or cells: Spodoptera frugiperda (SF9), baculovirus; test: PRMT5 Biochemical Assay (PRMT5/MEP50 enzyme assay on histone H4 peptide substrate, 3H-SAM Flashplate); settings: PRMT5 biochemical assay; read-out: Biochemical IC50
Sequence (O14744 with tags, fused parts or gaps): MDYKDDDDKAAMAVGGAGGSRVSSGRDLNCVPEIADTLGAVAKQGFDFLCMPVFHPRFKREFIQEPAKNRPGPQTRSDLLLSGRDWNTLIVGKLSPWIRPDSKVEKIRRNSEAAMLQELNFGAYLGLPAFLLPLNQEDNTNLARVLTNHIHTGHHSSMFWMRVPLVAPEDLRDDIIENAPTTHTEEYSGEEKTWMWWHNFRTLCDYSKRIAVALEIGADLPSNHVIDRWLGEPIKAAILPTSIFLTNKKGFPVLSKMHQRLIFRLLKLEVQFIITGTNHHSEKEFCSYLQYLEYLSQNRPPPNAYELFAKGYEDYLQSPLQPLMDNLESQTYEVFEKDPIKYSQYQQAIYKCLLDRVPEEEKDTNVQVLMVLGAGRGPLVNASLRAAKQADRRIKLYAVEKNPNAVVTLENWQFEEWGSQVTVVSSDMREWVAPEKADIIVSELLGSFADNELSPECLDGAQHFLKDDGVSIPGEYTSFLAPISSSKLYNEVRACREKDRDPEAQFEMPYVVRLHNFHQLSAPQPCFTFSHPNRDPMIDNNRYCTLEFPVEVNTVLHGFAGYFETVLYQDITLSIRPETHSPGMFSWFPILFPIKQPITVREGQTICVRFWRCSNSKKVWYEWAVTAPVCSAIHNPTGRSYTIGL
Sequence (Q9BQA1 with tags, fused parts or gaps partner limits assumed): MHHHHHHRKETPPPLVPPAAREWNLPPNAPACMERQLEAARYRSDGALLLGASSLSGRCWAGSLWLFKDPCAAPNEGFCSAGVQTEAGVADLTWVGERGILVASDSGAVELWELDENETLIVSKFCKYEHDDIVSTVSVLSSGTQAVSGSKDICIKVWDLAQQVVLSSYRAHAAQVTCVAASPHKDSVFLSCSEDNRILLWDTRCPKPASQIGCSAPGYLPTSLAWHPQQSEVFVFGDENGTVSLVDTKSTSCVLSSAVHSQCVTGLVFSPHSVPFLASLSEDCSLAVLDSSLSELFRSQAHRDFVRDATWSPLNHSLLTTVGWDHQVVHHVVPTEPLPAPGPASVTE
pIC50: −log10 of the molar value.
Measure Name: pIC50

>  <Compound>
CN(CCN(C)C[C@H]1O[C@@H](n2cnc3c(N)ncnc32)[C@H](O)[C@@H]1O)Cc1ccccc1

>  <Result>
6.00 to 7.00

$$$$
>  <Compound>
Cc1ccc(C(=O)CC2NC(N3CCN(c4ccc(F)cc4)CC3)=NC2=O)cc1 (stereo not shown)

>  <Result>
5.00 to 6.00

$$$$
>  <Compound>
CCCN(CCN(C)C[C@H]1O[C@@H](n2cnc3c(N)ncnc32)[C@H](O)[C@@H]1O)CC1CC1

>  <Result>
6.00 to 7.00

$$$$
>  <Compound>
Cc1ccc(C(=O)CC2NC(N3CCN(C)CC3)=NC2=O)cc1 (stereo not shown)

>  <Result>
5.00 to 6.00

$$$$

* * *

Parameter: IC50. Scope: all listed entries.
molecular target: PRMT5/MEP50 (Homo sapiens, UniProt O14744); construct: Flag-PRMT5; made in house; host or cells: Spodoptera frugiperda (SF9), baculovirus; experiment: PRMT5 Biochemical Assay (PRMT5/MEP50 enzyme assay on histone H4 peptide substrate, 3H-SAM Flashplate); conditions: PRMT5 biochemical assay; read-out: Biochemical IC50

>  <Molecule>
CC(=O)N1CCC(Nc2cc(C(=O)NC(C)C(O)CN3CCc4ccccc4C3)ccn2)CC1 (centres unmarked) [Compound 11-9]

>  <IC50>
< 0.1 µM

$$$$
>  <Molecule>
CN(C)c1cccc2c(S(=O)(=O)NC[C@H](N)Cc3ccccc3)cccc12 [Compound 4-7]

>  <IC50>
0.101 to 1 µM

$$$$
>  <Molecule>
O=C(CC1NC(N2CCN(c3ccccc3)CC2)=NC1=O)Nc1ccc(Cl)c(Cl)c1 (centres unmarked) [Compound 59-14]

>  <IC50>
0.101 to 1 µM

$$$$
>  <Molecule>
O=C(CC1NC(N2CCN(c3ccccc3)CC2)=NC1=O)NCC1CCOCC1 (centres unmarked) [Compound 70-14]

>  <IC50>
10 to 50 µM

$$$$
>  <Molecule>
CN(CCNCCc1ccc(Cl)cc1)C[C@H]1O[C@@H](n2cnc3c(N)ncnc32)[C@H](O)[C@@H]1O [Compound 61-1]

>  <IC50>
< 0.1 µM

$$$$
>  <Molecule>
Nc1ncnc2c1ncn2[C@@H]1O[C@H](CSCC[C@@H](N)CO)[C@@H](O)[C@H]1O [Compound 92-1]

>  <IC50>
< 0.1 µM

$$$$
>  <Molecule>
COc1ccccc1C(=O)CC1NC(N2CCc3ccccc3C2)=NC1=O (centres unmarked) [Compound 5-6]

>  <IC50>
< 0.1 µM

$$$$
>  <Molecule>
COc1ccccc1C(O)CC1N=C(N2CCN(c3ccccc3)CC2)NC1=O (centres unmarked) [Compound 54-14]

>  <IC50>
10 to 50 µM

$$$$

* * *

biological target: PRMT5/MEP50 (Homo sapiens, UniProt O14744); construct: Flag-PRMT5; made in house; host or cells: Spodoptera frugiperda (SF9), baculovirus; experiment: PRMT5 Biochemical Assay (PRMT5/MEP50 enzyme assay on histone H4 peptide substrate, 3H-SAM Flashplate); settings: PRMT5 biochemical assay; read-out: Biochemical IC50

>  <Compound>
NCCN(CCC[C@H](N)CO)C[C@H]1O[C@@H](n2cnc3c(N)ncnc32)[C@H](O)[C@@H]1O

>  <IC50>
101 to 1000 nM

$$$$
>  <Compound>
CCN(CCN(C)C[C@H]1O[C@@H](n2cnc3c(N)ncnc32)[C@H](O)[C@@H]1O)Cc1ccncc1

>  <IC50>
< 100 nM

$$$$
>  <Compound>
CC1CC(Nc2cccc(C(=O)NC[C@H](O)CN3CCc4ccccc4C3)c2)CC(C)O1 (stereo partly drawn)

>  <IC50>
< 100 nM

$$$$
